Reference for the values: ChEMBL document CHEMBL2034933

Tested on: Rattus norvegicus
Test: Antiinflammatory activity in albino rat assessed as inhibition of carrageenan-induced paw edema at 100 mg/kg, po administered 1 hr prior to carrageenan-challenge measured after 3 hrs
Assay type: functional
Experimental endpoint: inhibition in vivo at 100 mg/kg (%)

Chemical smiles | System under test | Experimental endpoint | Unit descriptor | Value measured
O=C(CSc1nc(-c2ccccc2)c(C(=O)O)c(=O)[nH]1)Nn1c(COc2ccc(Cl)cc2Cl)nc2ccccc2c1=O | Rattus norvegicus | inhibition in vivo at 100 mg/kg | % | 64.9
N#Cc1c(Nc2ccccc2)nc(SCC(=O)Nn2c(COc3ccc(Cl)cc3Cl)nc3ccccc3c2=O)nc1-c1ccc(O)cc1 | Rattus norvegicus | inhibition in vivo at 100 mg/kg | % | 91.2
O=C(CSc1nc(-c2ccc(Cl)cc2)c(C(=O)O)c(=O)[nH]1)Nn1c(COc2ccc(Cl)cc2Cl)nc2ccccc2c1=O | Rattus norvegicus | inhibition in vivo at 100 mg/kg | % | 61.4
N#Cc1c(Nc2ccc(O)cc2)nc(SCC(=O)Nn2c(COc3ccc(Cl)cc3Cl)nc3ccccc3c2=O)nc1-c1ccc(Cl)cc1 | Rattus norvegicus | inhibition in vivo at 100 mg/kg | % | 91.2
N#Cc1c(-c2ccccc2)nc(SCC(=O)Nn2c(COc3ccc(Cl)cc3Cl)nc3ccccc3c2=O)n(Cc2ccccc2)c1=O | Rattus norvegicus | inhibition in vivo at 100 mg/kg | % | 79
N#Cc1c(Cl)nc(SCC(=O)Nn2c(COc3ccc(Cl)cc3Cl)nc3ccccc3c2=O)nc1-c1ccc(O)cc1 | Rattus norvegicus | inhibition in vivo at 100 mg/kg | % | 73.7
N#Cc1c(-c2ccccc2)nc(SCC(=O)Nn2c(COc3ccc(Cl)cc3Cl)nc3ccccc3c2=O)[nH]c1=O | Rattus norvegicus | inhibition in vivo at 100 mg/kg | % | 86
Cn1c(SCC(=O)Nn2c(COc3ccc(Cl)cc3Cl)nc3ccccc3c2=O)nc(-c2ccc(O)cc2)c(C#N)c1=O | Rattus norvegicus | inhibition in vivo at 100 mg/kg | % | 86
N#Cc1c(Nc2ccc(Cl)cc2)nc(SCC(=O)Nn2c(COc3ccc(Cl)cc3Cl)nc3ccccc3c2=O)nc1-c1ccc(Cl)cc1 | Rattus norvegicus | inhibition in vivo at 100 mg/kg | % | 64.9
N#Cc1c(-c2ccc(Cl)cc2)nc(SCC(=O)Nn2c(COc3ccc(Cl)cc3Cl)nc3ccccc3c2=O)n(Cc2ccccc2)c1=O | Rattus norvegicus | inhibition in vivo at 100 mg/kg | % | 77.2
